tested on: Human immunodeficiency virus 1; assay: Antiviral activity against HIV1 with reverse transcriptase Y181C mutation in MT4 cells after 5 days by MTT method; assay type: functional, organism-based; conditions: Human immunodeficiency virus 1, MT4, 120 h
EC50 values by entry
Quick note: give the figure in µM, leave out the unit.

| compound | units.symbol | EC50 |
| --- | --- | --- |
| Cc1c(C(C)c2c(Cl)cccc2Cl)nc(SCc2ccc([N+](=O)[O-])cc2)[nH]c1=O (centres undefined) | µM | 7.15 |

Data point: COc1ccc(CCSc2nc(Cc3c(F)cccc3F)c(C)c(=O)[nH]2)cc1 ; EC50 = 6.34

Form: compound = CCc1c(Cc2c(Cl)cccc2Cl)nc(SCc2ccc(C#N)cc2)[nH]c1=O ; EC50 = 3.05

Form field EC50, entry COc1ccc(CSc2nc(C(C)c3c(Cl)cccc3Cl)c(C)c(=O)[nH]2)cc1 (centres undefined) : 1.73

Query COc1ccc(CCCSc2nc(C(C)c3c(Cl)cccc3Cl)c(C)c(=O)[nH]2)cc1 (centres undefined) yields EC50 of 0.24

Reported EC50 ( Cc1c(Cc2c(Cl)cccc2Cl)nc(SCC(=O)c2ccc(C#N)cc2)[nH]c1=O ) = 1.31

* * *

system: Human immunodeficiency virus 1; test: Antiviral activity against HIV1 with reverse transcriptase Y181C mutation in MT4 cells after 5 days by MTT method; type: functional, organism-based; conditions: Human immunodeficiency virus 1, MT4, 120 h
metric.name: pEC50
Value format note: pEC50 is -log10 of concentration (mol/L); just state the number.

Sample answers from the record:
| compound | pEC50 |
| --- | --- |
| COc1ccc(C#CCSc2nc(C(C)c3c(Cl)cccc3Cl)c(C)c(=O)[nH]2)cc1 (stereo not given) | 4.47 |
| COc1ccc(COCCSc2nc(Cc3c(Cl)cccc3Cl)c(C)c(=O)[nH]2)cc1 | 5.52 |

Form: compound = Cc1c(Cc2c(F)cccc2F)nc(SCC(=O)c2ccc(Cl)cc2)[nH]c1=O ; pEC50 = 5.43

* * *

molecular target: Human immunodeficiency virus type 1 reverse transcriptase (Human immunodeficiency virus 1) (UniProt Q72547); assay: Antiviral activity against wild type HIV1 reverse transcriptase
metric.name: ID50 (µM)
Give the number; µM is assumed, so skip it.

// solved cases for ID50 follow
| compound | metric.name | number |
| --- | --- | --- |
| COC(=O)c1ccc(CSc2nc(Cc3c(F)cccc3F)c(C)c(=O)[nH]2)cc1 | ID50 | 0.5 |
| COc1ccc(CCCSc2nc(C(C)c3c(Cl)cccc3Cl)c(C)c(=O)[nH]2)cc1 (stereo not given) | ID50 | 9.76 |
| CCc1c(C(C)c2c(F)cccc2F)nc(SC/C=C/c2ccc(OC)cc2)[nH]c1=O (stereo not given) | ID50 | 0.016 |
| COc1ccc(/C=C/Sc2nc(C(C)c3c(Cl)cccc3Cl)c(C)c(=O)[nH]2)cc1 (stereo not given) | ID50 | 0.02 |
| Cc1c(Cc2c(F)cccc2F)nc(SCC(=O)c2ccc(Cl)cc2)[nH]c1=O | ID50 | 7.5 |

ID50 measured on Cc1c(Cc2c(Cl)cccc2Cl)nc(SC/C=C/c2ccc(N(C)C)cc2)[nH]c1=O = 0.778

# ID50 of COc1ccc(C#CCSc2nc(C(C)c3c(Cl)cccc3Cl)c(C)c(=O)[nH]2)cc1 (stereo not given) = 0.005

What the record says about CCc1c(C(C)c2c(F)cccc2F)nc(SC/C=C/c2ccc(C#N)cc2)[nH]c1=O (stereo not given) : ID50 is 0.048

Field ID50 (entry CCc1c(Cc2c(Cl)cccc2Cl)nc(SCCc2ccc(OC)cc2)[nH]c1=O ) reads 0.07

Short answer for COc1ccc(/C=C/Sc2nc(Cc3c(Cl)cccc3Cl)c(C)c(=O)[nH]2)cc1 : ID50 was 1.98

The reported value for CCc1c(Cc2c(Cl)cccc2Cl)nc(SCc2ccc([N+](=O)[O-])cc2)[nH]c1=O in terms of ID50 is 0.075

The reported value for Cc1c(Cc2c(F)cccc2F)nc(SC/C=C/c2ccc([N+](=O)[O-])cc2)[nH]c1=O in terms of ID50 is 11.9

Lab book: ID50 of Cc1c(C(C)c2c(F)cccc2F)nc(SC/C=C/c2ccc(C#N)cc2)[nH]c1=O (stereo not given) noted as 0.161

CCc1c(Cc2c(Cl)cccc2Cl)nc(SCc2ccc(C#N)cc2)[nH]c1=O has a reported ID50 of 0.1

# ID50 (compound: CCc1c(Cc2c(F)cccc2F)nc(SCc2ccc([N+](=O)[O-])cc2)[nH]c1=O ) is 0.07

// sample COc1ccc(C#CCSc2nc(Cc3c(Cl)cccc3Cl)c(C)c(=O)[nH]2)cc1 , its ID50 was 0.01

For record COc1ccc(COCCSc2nc(C(C)c3c(F)cccc3F)c(C)c(=O)[nH]2)cc1 (stereo not given) the listed ID50 is 0.0082
